melting point values by entry

Check out these entries, answers already filled in.
The value of melting point measured for the compound CCN1CCN(Cc2ccc(-c3cc4c(Nc5ccc(F)c(Cl)c5)ncnc4[nH]3)cc2)CC1 [Example 3] turned out to be 266 to 268 °C

The value of melting point measured for the compound Clc1ccccc1CNc1ncnc2[nH]c(-c3ccc(CN4CCOCC4)cc3)cc12 [Example 93] turned out to be 276 to 279 °C

The value of melting point measured for the compound CN1CCN(Cc2ccc(-c3cc4c(NCc5cccc(Cl)c5)ncnc4[nH]3)cc2)CC1 [Example 89] turned out to be 235 to 237 °C

The value of melting point measured for the compound Cc1cccc(CNc2ncnc3[nH]c(-c4ccc(CN5CCN(C)CC5)cc4)cc23)c1 [Example 107i] turned out to be 244 to 246 °C

The value of melting point measured for the compound Clc1ccc(Cl)c(CNc2ncnc3[nH]c(-c4ccc(CN5CCOCC5)cc4)cc23)c1 [Example 99] turned out to be 272 to 274 °C

Further cases:
The value of melting point measured for the compound C[C@@H](Nc1ncnc2[nH]c(-c3cccc(CN4CCCC4)c3)cc12)c1ccccc1 [Example 28] turned out to be 90 to 92 °C

The value of melting point measured for the compound COc1ccc(Nc2ncnc3[nH]c(-c4ccc(CN5CCN(C)CC5)cc4)cc23)cn1 [Example 112] turned out to be 241 to 242 °C

The value of melting point measured for the compound C[C@@H](Nc1ncnc2[nH]c(-c3ccc(CNC(=O)CN(C)C)cc3)cc12)c1ccccc1 [Example 44] turned out to be 263 to 266 °C
